- Target Under Test: Insulin-like growth factor 1 receptor (IGF1R) (UniProt P08069 31-1367, limits assumed)
- Sequence (P08069 31-1367 limits assumed): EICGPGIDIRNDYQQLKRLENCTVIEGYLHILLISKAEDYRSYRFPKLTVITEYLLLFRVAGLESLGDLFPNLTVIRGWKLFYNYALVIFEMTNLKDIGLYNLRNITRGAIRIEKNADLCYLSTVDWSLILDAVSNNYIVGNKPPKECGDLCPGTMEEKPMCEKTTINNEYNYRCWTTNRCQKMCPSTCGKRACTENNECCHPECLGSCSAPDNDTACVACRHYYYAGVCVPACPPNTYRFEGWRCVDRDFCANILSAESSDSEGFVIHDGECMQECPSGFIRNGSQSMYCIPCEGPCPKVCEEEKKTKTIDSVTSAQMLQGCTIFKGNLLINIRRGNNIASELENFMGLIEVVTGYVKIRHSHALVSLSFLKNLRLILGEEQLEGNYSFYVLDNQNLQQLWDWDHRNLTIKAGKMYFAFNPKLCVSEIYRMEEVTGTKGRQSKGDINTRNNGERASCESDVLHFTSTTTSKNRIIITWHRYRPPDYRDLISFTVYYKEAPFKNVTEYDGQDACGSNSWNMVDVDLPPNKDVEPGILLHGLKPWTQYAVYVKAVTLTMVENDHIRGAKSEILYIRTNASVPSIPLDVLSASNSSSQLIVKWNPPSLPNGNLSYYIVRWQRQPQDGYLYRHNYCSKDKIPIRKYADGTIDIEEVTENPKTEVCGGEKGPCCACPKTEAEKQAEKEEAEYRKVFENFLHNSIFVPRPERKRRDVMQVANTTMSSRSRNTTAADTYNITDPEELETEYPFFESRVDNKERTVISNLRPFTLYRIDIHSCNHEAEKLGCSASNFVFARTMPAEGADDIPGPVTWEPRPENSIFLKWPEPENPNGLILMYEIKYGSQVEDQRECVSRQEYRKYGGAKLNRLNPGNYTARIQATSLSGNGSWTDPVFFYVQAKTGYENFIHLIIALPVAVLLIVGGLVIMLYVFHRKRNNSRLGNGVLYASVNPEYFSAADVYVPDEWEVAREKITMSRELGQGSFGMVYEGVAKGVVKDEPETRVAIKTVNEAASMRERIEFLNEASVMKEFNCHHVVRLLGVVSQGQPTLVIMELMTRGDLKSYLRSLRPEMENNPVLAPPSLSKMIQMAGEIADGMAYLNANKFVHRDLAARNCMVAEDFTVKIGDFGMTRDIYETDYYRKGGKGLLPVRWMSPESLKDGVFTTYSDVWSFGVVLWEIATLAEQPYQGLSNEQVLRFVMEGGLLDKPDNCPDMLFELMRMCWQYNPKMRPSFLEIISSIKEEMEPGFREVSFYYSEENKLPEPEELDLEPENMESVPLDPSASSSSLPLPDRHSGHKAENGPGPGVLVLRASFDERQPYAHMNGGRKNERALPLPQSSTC
- Run Description: cell-based or functional assay
Where no end group is shown, it is not given here. [ ]: non-standard residue; d: D form. The star is where a group is joined. Palmitoyl = CCCCCCCCCCCCCCCC(=O)*
Property Name: GI50 (µM), MTT assay, MCF-7 cells
Numeric answer only, unit µM assumed.

Please review the following examples before continuing.
Palmitoyl-SRLGNGVLY-NH2 (SMILES CCCCCCCCCCCCCCCC(=O)N[C@@H](CO)C(=O)N[C@@H](CCCNC(=N)N)C(=O)N[C@@H](CC(C)C)C(=O)NCC(=O)N[C@@H](CC(N)=O)C(=O)NCC(=O)N[C@H](C(=O)N[C@@H](CC(C)C)C(=O)N[C@@H](Cc1ccc(O)cc1)C(N)=O)C(C)C) [peptide 19 (Pal-SRLGNGVLY-NH2)]	0.15
Palmitoyl-RNNSRLGNGVLF-NH2 (SMILES CCCCCCCCCCCCCCCC(=O)N[C@@H](CCCNC(=N)N)C(=O)N[C@@H](CC(N)=O)C(=O)N[C@@H](CC(N)=O)C(=O)N[C@@H](CO)C(=O)N[C@@H](CCCNC(=N)N)C(=O)N[C@@H](CC(C)C)C(=O)NCC(=O)N[C@@H](CC(N)=O)C(=O)NCC(=O)N[C@H](C(=O)N[C@@H](CC(C)C)C(=O)N[C@@H](Cc1ccccc1)C(N)=O)C(C)C) [peptide 29 (Pal-RNNSRLGNGVLF-NH2)]	0.1
Palmitoyl-[dV][dS][dA][dY][dL][dV]G[dN]G[dL][dR][dS][dN][dN][dR]-NH2 (SMILES CCCCCCCCCCCCCCCC(=O)N[C@@H](C(=O)N[C@H](CO)C(=O)N[C@H](C)C(=O)N[C@H](Cc1ccc(O)cc1)C(=O)N[C@H](CC(C)C)C(=O)N[C@@H](C(=O)NCC(=O)N[C@H](CC(N)=O)C(=O)NCC(=O)N[C@H](CC(C)C)C(=O)N[C@H](CCCNC(=N)N)C(=O)N[C@H](CO)C(=O)N[C@H](CC(N)=O)C(=O)N[C@H](CC(N)=O)C(=O)N[C@H](CCCNC(=N)N)C(N)=O)C(C)C)C(C)C) [peptide 21 (Pal-VSAYLVGNGLRSNNR-NH2)]	0.04
Ac-[dY][dL][dV]G[dN]G[dL][dR][dS][dN][dN][dR][dK](Palmitoyl) [peptide 18 (Ac-YLVGNGLRSNNRK-(ε-Pal)), retro-inverso version of peptide 27]	0.04

Switching to the query record.
Prompt line: GET /values?readout=GI50 (µM), MTT assay, MCF-7 cells&item= Palmitoyl-RNNSRLGNGVLYASVN-NH2 (SMILES CCCCCCCCCCCCCCCC(=O)N[C@@H](CCCNC(=N)N)C(=O)N[C@@H](CC(N)=O)C(=O)N[C@@H](CC(N)=O)C(=O)N[C@@H](CO)C(=O)N[C@@H](CCCNC(=N)N)C(=O)N[C@@H](CC(C)C)C(=O)NCC(=O)N[C@@H](CC(N)=O)C(=O)NCC(=O)N[C@H](C(=O)N[C@@H](CC(C)C)C(=O)N[C@@H](Cc1ccc(O)cc1)C(=O)N[C@@H](C)C(=O)N[C@@H](CO)C(=O)N[C@H](C(=O)N[C@@H](CC(N)=O)C(N)=O)C(C)C)C(C)C) [peptide 14 (Pal-RNNSRLGNGVLYASVN-NH2)]
Response line: 0.1
